Listing: growth inhibition of selected molecules
# RUN DESCRIPTION: NCI Yeast Anticancer Drug Screen. Data for the mlh1 rad18 strain (AID 175)
# MEASUREMENT PARAMETERS: S. cerevisiae mlh1 rad18 strain growth inhibition; at 50.0 µM (retest, dose inferred, filed as 5.0); hits give high values
About 79,000 compounds went through this panel and 15% of them were active in at least one assay; those are over-represented in the sample as a whole. Calls of active or inactive are those of the source. Cut-off read from the data, not from the text of the source: active = growth inhibition above about 70%; inactive = the rest.
MEASURED METRIC: growth inhibition

>  <MOLECULE>
O=[N+]([O-])c1ccc(-c2ccccc2Cl)c([N+](=O)[O-])c1

>  <MEASURED METRIC>
growth inhibition

>  <MEASURED RESULT>
97% (active)

$$$$
>  <MOLECULE>
CC1=NN(C(=O)c2ccncc2)C(=O)C1N=Nc1ccc(C)c([N+](=O)[O-])c1 (stereo not given)

>  <MEASURED METRIC>
growth inhibition

>  <MEASURED RESULT>
69% (inactive)

$$$$
>  <MOLECULE>
N#Cc1ccc(Cl)cc1[N+](=O)[O-]

>  <MEASURED METRIC>
growth inhibition

>  <MEASURED RESULT>
96% (active)

$$$$
>  <MOLECULE>
N=C(N)SC1c2ccccc2-c2ccc(N)cc21 (stereo not given)

>  <MEASURED METRIC>
growth inhibition

>  <MEASURED RESULT>
95% (active)

$$$$
>  <MOLECULE>
CCC=Nc1c(O)cc(-c2ccccc2)n(C)c1=O

>  <MEASURED METRIC>
growth inhibition

>  <MEASURED RESULT>
94% (active)

$$$$
>  <MOLECULE>
O=C1Nc2c(Cl)cc(Cl)cc2/C1=N/N=C/c1ccccc1O

>  <MEASURED METRIC>
growth inhibition

>  <MEASURED RESULT>
72% (active)

$$$$
>  <MOLECULE>
Cc1c(C(=O)N(CCO)CCO)[n+](=O)c2ccccc2n1[O-]

>  <MEASURED METRIC>
growth inhibition

>  <MEASURED RESULT>
13% (inactive)

$$$$
>  <MOLECULE>
c1ccc2c(CCc3ccncc3)c[nH]c2c1

>  <MEASURED METRIC>
growth inhibition

>  <MEASURED RESULT>
65% (inactive)

$$$$
>  <MOLECULE>
COc1ccccc1OCC(COC(=O)Nc1ccc(C)cc1)OC(=O)Nc1ccc(C)cc1 (stereo not given)

>  <MEASURED METRIC>
growth inhibition

>  <MEASURED RESULT>
-1% (inactive)

$$$$
>  <MOLECULE>
CCOc1nc(N)nc(C)c1N=Nc1ccc(Cl)cc1

>  <MEASURED METRIC>
growth inhibition

>  <MEASURED RESULT>
88% (active)

$$$$
>  <MOLECULE>
CN1C(=O)C(C2C(=O)N(C)C(=O)N(C)C2=O)C(=O)N(C)C1=O

>  <MEASURED METRIC>
growth inhibition

>  <MEASURED RESULT>
-2% (inactive)

$$$$
>  <MOLECULE>
O=NN(CCCl)C(=O)Nc1cc(Cl)ccc1O

>  <MEASURED METRIC>
growth inhibition

>  <MEASURED RESULT>
81% (active)

$$$$
>  <MOLECULE>
COc1ccc(C(=O)C(CN2CCOCC2)CN2CCOCC2)cc1

>  <MEASURED METRIC>
growth inhibition

>  <MEASURED RESULT>
-2% (inactive)

$$$$
>  <MOLECULE>
O=c1ccn(C2OC(COC(c3ccccc3)(c3ccccc3)c3ccccc3)C(O)C2O)c(=O)[nH]1 (stereo not given)

>  <MEASURED METRIC>
growth inhibition

>  <MEASURED RESULT>
98% (active)

$$$$
>  <MOLECULE>
O=C(OCCN=c1c2ccccc2ccc2ccccc12)c1ccccc1

>  <MEASURED METRIC>
growth inhibition

>  <MEASURED RESULT>
98% (active)

$$$$
>  <MOLECULE>
NC(N)=Nc1ccc(N=C(N)N)cc1

>  <MEASURED METRIC>
growth inhibition

>  <MEASURED RESULT>
2% (inactive)

$$$$
>  <MOLECULE>
CC(c1ccccc1C(=O)O)c1cccc2ccccc12 (stereo not given)

>  <MEASURED METRIC>
growth inhibition

>  <MEASURED RESULT>
92% (active)

$$$$
>  <MOLECULE>
CSC(=N)N1N=C2/C(=C/c3ccccc3)CCC[C@H]2[C@H]1c1ccccc1

>  <MEASURED METRIC>
growth inhibition

>  <MEASURED RESULT>
29% (inactive)

$$$$
>  <MOLECULE>
COc1ccc2c(c1)C(=O)C[C@@H]1[C@](C)(C#N)CCC[C@]21C

>  <MEASURED METRIC>
growth inhibition

>  <MEASURED RESULT>
13% (inactive)

$$$$
>  <MOLECULE>
CCOc1ccccc1/C=C1\C=Nc2ccccc21

>  <MEASURED METRIC>
growth inhibition

>  <MEASURED RESULT>
-17% (inactive)

$$$$
>  <MOLECULE>
O=C(NNc1ncccn1)c1ccc(C(=O)NNc2ncccn2)cc1

>  <MEASURED METRIC>
growth inhibition

>  <MEASURED RESULT>
99% (active)

$$$$
>  <MOLECULE>
CC(C)c1c(P(=O)(c2ccccc2)c2ccccc2)n(C)c2ccccc12

>  <MEASURED METRIC>
growth inhibition

>  <MEASURED RESULT>
96% (active)

$$$$
>  <MOLECULE>
CCc1nc(N)nc(N)c1-c1ccc(N2CCCCC2)c([N+](=O)[O-])c1

>  <MEASURED METRIC>
growth inhibition

>  <MEASURED RESULT>
0% (inactive)

$$$$
>  <MOLECULE>
O=C(CN(Cc1ccccc1)Cc1ccccc1)N1CCc2c([nH]c3ccccc23)C1c1cccnc1 (stereo not given)

>  <MEASURED METRIC>
growth inhibition

>  <MEASURED RESULT>
32% (inactive)

$$$$
>  <MOLECULE>
O=[N+]([O-])c1ccc(S(=O)/N=C/c2ccccc2)c([N+](=O)[O-])c1 (stereo not given)

>  <MEASURED METRIC>
growth inhibition

>  <MEASURED RESULT>
97% (active)

$$$$
>  <MOLECULE>
C1CCN(c2nc(N3CCOCC3)c3[nH]c(N4CCCCC4)nc3n2)CC1

>  <MEASURED METRIC>
growth inhibition

>  <MEASURED RESULT>
68% (inactive)

$$$$
>  <MOLECULE>
Cc1ccc2sc(=S)sc2c1

>  <MEASURED METRIC>
growth inhibition

>  <MEASURED RESULT>
69% (inactive)

$$$$
>  <MOLECULE>
O=C(Nc1ccc(Cl)cc1)Nc1nnc2nc(C(C(=O)c3ccc(F)cc3)c3nc4nnc(NC(=O)Nc5ccc(Cl)cc5)n4[nH]c3=O)c(=O)[nH]n12

>  <MEASURED METRIC>
growth inhibition

>  <MEASURED RESULT>
64% (inactive)

$$$$
>  <MOLECULE>
COc1ccc(-c2c3ccccc3[n+](-c3ccccc3)c3ccccc23)cc1

>  <MEASURED METRIC>
growth inhibition

>  <MEASURED RESULT>
99% (active)

$$$$
>  <MOLECULE>
COc1ccccc1C1c2cc3c(cc2OC(C)(O)C1C)OCO3 (stereo not given)

>  <MEASURED METRIC>
growth inhibition

>  <MEASURED RESULT>
75% (active)

$$$$
>  <MOLECULE>
CCCCCCN(CCCCCC)P(=O)(N1CC1C)N1CC1C (stereo not given)

>  <MEASURED METRIC>
growth inhibition

>  <MEASURED RESULT>
99% (active)

$$$$
>  <MOLECULE>
Cc1ccc(S(=O)(=O)N/N=C2/CC[C@H](C(C)(C)C)C[C@@H]2C)cc1

>  <MEASURED METRIC>
growth inhibition

>  <MEASURED RESULT>
98% (active)

$$$$
>  <MOLECULE>
CC(=O)N(C)c1cc(NCc2ccccc2)ccc1OCc1ccccc1

>  <MEASURED METRIC>
growth inhibition

>  <MEASURED RESULT>
96% (active)

$$$$
>  <MOLECULE>
Cc1cc(Cl)cc2c1NC(=O)C2(O)C/C(=N/NC(=O)CC#N)c1cccc([N+](=O)[O-])c1 (stereo not given)

>  <MEASURED METRIC>
growth inhibition

>  <MEASURED RESULT>
-23% (inactive)

$$$$
>  <MOLECULE>
Clc1ccc2nc(CCSCCc3nc4ccc(Cl)cc4[nH]3)[nH]c2c1

>  <MEASURED METRIC>
growth inhibition

>  <MEASURED RESULT>
98% (active)

$$$$
